src = the supplement of paper PMC7125110

B1: glmS ribozyme (parent)
chain: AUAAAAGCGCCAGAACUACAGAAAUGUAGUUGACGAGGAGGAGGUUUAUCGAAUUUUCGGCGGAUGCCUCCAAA

variants of: B1; assay: self-cleavage kobs at 2500 uM GlcN6P; higher = faster cleavage; RNA array; conditions: with glucosamine-6-phosphate
Variants at the floor of the assay were thinned out.
value_kind: self-cleavage kobs at 2500 uM GlcN6P (s⁻¹)

1) U31A G32A
0.000381
2) A14G U69A
0.000142
3) U46C U55C
0.00291
4) A39G
0.0472
5) C19A C67G
0.000309
6) U31G U54A C68U
0.000161
7) A15U A33C
4.34e-05
8) A12U U54G
0.0405
9) A12U U45G
0.0134
10) C10G C11U C16A A33U C34U C50G C70U
6.14e-05
11) G37C A53U
2.18e-05
12) A12C U46G
0.002
13) A15G U45C U65G
0.000117
